tested on: E. coli colonies that became resistant to CHL after CIP treatment; format: cell-based; conditions: colony 20; plates with 2× MIC after 24 h on LB without selection
property_label: Antibiotic resistance

1) CC1(C)S[C@@H]2[C@H](NC(=O)[C@H](N)c3ccccc3)C(=O)N2[C@H]1C(=O)O | No
2) [H]/N=C(/N)N[C@H]1[C@H](O)[C@@H](O)[C@H](O[C@@H]2O[C@@H](C)[C@](O)(C=O)[C@H]2O[C@@H]2O[C@@H](CO)[C@H](O)[C@@H](O)[C@@H]2NC)[C@@H](N/C(N)=N\[H])[C@@H]1O | No
3) Oc1cc(Cl)ccc1Oc1ccc(Cl)cc1Cl | No
4) O=C(N[C@H](CO)[C@H](O)c1ccc([N+](=O)[O-])cc1)C(Cl)Cl | Yes
